Measured abundance fitness, listed per entry for reference.
B1: Homeobox protein cut-like 1, residues 548 to 629; numbered along this chain, P39880 (parent)
chain: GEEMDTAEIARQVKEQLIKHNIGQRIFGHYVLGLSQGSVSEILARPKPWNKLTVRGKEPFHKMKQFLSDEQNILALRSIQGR

Variants of: B1
method: abundance fitness (aPCA) (normalised: wild type 0, dead -1); higher = more abundant; growth selection in yeast, the domain comes from the species named
run-parameters: Homo sapiens
# print the numeric value only

Examples with answers:
variant-name: R55D
observed-value: 0.027
//
variant-name: T6P
observed-value: -0.385
//
variant-name: L76R
observed-value: -0.945
//
variant-name: E15S
observed-value: 0.034
//
variant-name: K19E
observed-value: -0.26

Challenge: Fill in: abundance fitness of G33I is ___
Response given: -1.15

Challenge: Consider the variant shown here: L67D What is its recorded abundance fitness?
Response given: -0.876

Challenge: What value of abundance fitness has been reported for the following variant? L32H
Response given: -0.723

Challenge: Any idea what its abundance fitness is? The variant is I73L
Response given: -0.064

Challenge: Query (variant): F60S ; field requested: abundance fitness
Response given: -0.869

Challenge: Please look up its abundance fitness: G23H
Response given: -0.009

Challenge: I'd like to know its abundance fitness. The variant in question is K64Q
Response given: 0.033

Challenge: I am curious: what abundance fitness value has been reported for H29W ?
Response given: -0.102

Challenge: Please report the recorded abundance fitness for A10M .
Response given: -0.947

Challenge: Would you kindly share the measured abundance fitness for H20G ?
Response given: -0.584

Challenge: Any idea what its abundance fitness is? The variant is S38L
Response given: -0.005

Challenge: Look up abundance fitness for this variant: A44M
Response given: 0.047

Challenge: Could you share which abundance fitness value was measured for V39N ?
Response given: -0.697

Challenge: State the recorded abundance fitness for this entry: Q24D
Response given: -0.091

Challenge: # lookup: abundance fitness of A75I
Response given: -0.146

Challenge: Any idea what abundance fitness was measured for S78I ?
Response given: -0.066
